Where do the numbers come from? From patent US20220233512A1.

# assay target: mu opiate receptor (MOR) (Rattus norvegicus, UniProt P33535)
# Construct: from tissue; host or cells: striatum (membrane preparation)
# Sequence (P33535 whole entry): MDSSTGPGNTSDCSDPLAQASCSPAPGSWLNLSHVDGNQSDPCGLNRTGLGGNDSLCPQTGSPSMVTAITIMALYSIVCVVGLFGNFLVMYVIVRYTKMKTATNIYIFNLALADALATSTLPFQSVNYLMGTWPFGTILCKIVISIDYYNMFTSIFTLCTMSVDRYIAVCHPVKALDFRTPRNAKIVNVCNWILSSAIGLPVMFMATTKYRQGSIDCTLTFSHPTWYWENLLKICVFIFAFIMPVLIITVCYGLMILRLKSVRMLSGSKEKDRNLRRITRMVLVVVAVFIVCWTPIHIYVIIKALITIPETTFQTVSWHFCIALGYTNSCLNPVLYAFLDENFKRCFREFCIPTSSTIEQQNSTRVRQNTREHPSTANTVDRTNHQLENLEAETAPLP
# assay procedure: MOR agonist activity using [35S]GTPgS binding assay in striatal membranes
# Type: biochemical
# condition label: 1 μM + BFNA; Series C-2 table
Output class 1 for MOR agonist activity ([35S]GTPgS binding to Gao) not less than 60%; output class 0 otherwise.

Query: Could you verify whether the entry O=C1CN(Cc2ccccc2)C2(CCN(C3CCCCC3)CC2)N1 [C0137M P7] shows MOR agonist activity ([35S]GTPgS binding to Gao) of no less than 60%?
Reply: class 0

Query: Could you verify whether the entry CCN1CCC2(CC1)OCCN2S(=O)(=O)c1ccc(OC)cc1 [Compound C0089M] shows MOR agonist activity ([35S]GTPgS binding to Gao) of no less than 60%?
Reply: class 1

Query: Could you verify whether the entry O=C1CNC2(CCNCC2)N1Cc1ccccc1 [Compound C0114M] shows MOR agonist activity ([35S]GTPgS binding to Gao) of no less than 60%?
Reply: class 0

Query: Could you verify whether the entry COc1ccc(S(=O)(=O)N2CCOC23CCN(CC2CC2)CC3)cc1 [Compound C0090M] shows MOR agonist activity ([35S]GTPgS binding to Gao) of no less than 60%?
Reply: class 0

Query: Could you verify whether the entry `O=[N+]([O-])c1ccc(S(=O)(=O)N2CCC3(CC2)NCCO3)cc1` shows MOR agonist activity ([35S]GTPgS binding to Gao) of no less than 60%?
Reply: class 1

Query: Could you verify whether the entry `CC(=O)c1ccc(S(=O)(=O)N2CCOC23CCNCC3)cc1` shows MOR agonist activity ([35S]GTPgS binding to Gao) of no less than 60%?
Reply: class 1
